Provenance of the data: patent US11203594B2

Target: CDK6/Cyclin D3 (Homo sapiens (Human), UniProt Q00534)
Sequence (P30281 whole entry partner, one chain of several): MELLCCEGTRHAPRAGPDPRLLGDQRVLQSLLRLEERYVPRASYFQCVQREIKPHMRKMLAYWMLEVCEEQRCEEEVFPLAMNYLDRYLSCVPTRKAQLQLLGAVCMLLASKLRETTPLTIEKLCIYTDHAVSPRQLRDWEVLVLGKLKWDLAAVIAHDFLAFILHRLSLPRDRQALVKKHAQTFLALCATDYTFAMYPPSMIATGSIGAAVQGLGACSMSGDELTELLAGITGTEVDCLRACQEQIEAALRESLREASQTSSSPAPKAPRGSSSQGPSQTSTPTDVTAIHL
Test: CDK6/Cyclin D3 CHEF assay (Chelation-Enhanced Fluorescence), Ki by Morrison equation
Assay type: biochemical
Details: geometric mean; tested in both CHEF and MSA; read-out: CDK6/Cyclin D3: GMean Ki
recorded endpoint: Ki (nM)

compound_string=CC(=O)c1c(C)c2cnc(N[C@@H]3CCOC[C@H]3O)nc2n(C2CCCC2)c1=O assay_target="CDK6/Cyclin D3 (Homo sapiens (Human), UniProt Q00534)" test_result=1.2
compound_string=CC(=O)c1c(C)c2cnc(N[C@@H]3CCOC[C@H]3O)cc2n(C2CCCC2)c1=O assay_target="CDK6/Cyclin D3 (Homo sapiens (Human), UniProt Q00534)" test_result=1.3

---

Target: CDK6/Cyclin D1 (Homo sapiens (Human))
Sequence (Q00534 whole entry): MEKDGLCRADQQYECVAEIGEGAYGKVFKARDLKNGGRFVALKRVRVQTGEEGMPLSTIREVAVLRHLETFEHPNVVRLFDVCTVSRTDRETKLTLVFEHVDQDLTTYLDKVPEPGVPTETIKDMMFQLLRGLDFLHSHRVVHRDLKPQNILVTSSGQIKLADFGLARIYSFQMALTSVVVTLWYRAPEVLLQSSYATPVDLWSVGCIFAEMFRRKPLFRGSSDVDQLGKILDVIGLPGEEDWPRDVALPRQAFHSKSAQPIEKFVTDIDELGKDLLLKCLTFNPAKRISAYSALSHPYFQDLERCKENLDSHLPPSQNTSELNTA
Sequence (P24385 whole entry partner): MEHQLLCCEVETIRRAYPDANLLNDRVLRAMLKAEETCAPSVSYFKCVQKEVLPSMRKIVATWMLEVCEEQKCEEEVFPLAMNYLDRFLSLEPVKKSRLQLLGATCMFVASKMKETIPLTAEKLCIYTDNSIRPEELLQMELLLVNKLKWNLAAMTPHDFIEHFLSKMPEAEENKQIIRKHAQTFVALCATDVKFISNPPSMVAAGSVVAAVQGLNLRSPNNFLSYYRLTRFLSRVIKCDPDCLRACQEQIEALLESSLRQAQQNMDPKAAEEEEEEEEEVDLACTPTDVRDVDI
Test: CDK6/Cyclin D1 Mobility Shift Assay (MSA), Ki by Morrison equation
Format: biochemical
Details: geometric mean; tested in CDK6/D1 Ki assay using MSA; read-out: CDK6/Cyclin D3: GMean Ki (nM) (footnote c: CDK6/D1 Ki)
recorded endpoint: Ki (nM)
# output: bare number, implied unit nM

Req: # query: Ki of entry CC(=O)c1c(C)c2cnc(N[C@@H]3CCOC[C@H]3O)nc2n([C@H]2CCC[C@]2(C)F)c1=O (single isomer, unassigned) [Example 22]
Resp: 2.8

---

Target: CDK4/Cyclin D1 (Homo sapiens (Human))
Sequence (P11802 whole entry, one chain of several): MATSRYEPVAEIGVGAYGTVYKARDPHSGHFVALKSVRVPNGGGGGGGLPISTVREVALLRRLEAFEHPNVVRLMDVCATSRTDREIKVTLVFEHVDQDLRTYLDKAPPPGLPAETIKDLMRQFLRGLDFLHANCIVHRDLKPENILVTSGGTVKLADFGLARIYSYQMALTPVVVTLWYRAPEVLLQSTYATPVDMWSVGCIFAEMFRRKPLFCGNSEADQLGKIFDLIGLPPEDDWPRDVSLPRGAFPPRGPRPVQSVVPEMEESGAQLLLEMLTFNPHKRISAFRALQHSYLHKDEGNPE
Assay: CDK4/Cyclin D1 CHEF assay (Chelation-Enhanced Fluorescence), Ki by Morrison equation
Type: biochemical
Settings: geometric mean; tested in both CHEF and MSA; read-out: CDK4/Cyclin D1 GMean Ki
recorded endpoint: Ki (nM)

1: CC(=O)c1c(C)c2cnc(N[C@@H]3CCOC[C@H]3O)nc2n(C2CCCC2)c1=O [Example 2]
2: CC(=O)c1c(C)c2cnc(N[C@@H]3CCOC[C@H]3O)cc2n(C2CCCC2)c1=O [Example 5]
Req: Could you tell me which of these two has the smaller Ki figure? First: 1 Second: 2 Refer to your chosen item by its label in the answer.
Resp: 2
(2: 0.4 nM, 1: 0.8 nM)

---

Biological target: CDK4/Cyclin D1 (Homo sapiens (Human))
Assay: CDK4/Cyclin D1 CHEF assay (Chelation-Enhanced Fluorescence), Ki by Morrison equation
Format: biochemical
Settings: geometric mean; tested in CHEF Assay; read-out: CDK4/Cyclin D1 GMean Ki
pKi: −log10 of the molar value.
recorded endpoint: pKi

compound=CC(=O)c1c(C)c2cnc(N[C@@H]3CCOC[C@H]3O)nc2n([C@H]2CC[C@@H](O)CC2)c1=O assay_target="CDK4/Cyclin D1 (Homo sapiens (Human))" test_result=7.27
compound="CC(=O)c1c(C)c2cnc(N[C@@H]3CCOC[C@H]3O)nc2n([C@H]2CCC[C@]2(C)O)c1=O (mixture of isomers) [Example 6]" assay_target="CDK4/Cyclin D1 (Homo sapiens (Human))" test_result=6.95
compound=CC(=O)c1c(C)c2cnc(N[C@@H]3CCOC[C@H]3O)nc2n(C2CC3(C2)CN(CC(F)F)C3)c1=O assay_target="CDK4/Cyclin D1 (Homo sapiens (Human))" test_result=8.72

A: CC(=O)c1c(C)c2cnc(N[C@@H]3CCOC[C@H]3O)nc2n([C@H]2CCC[C@]2(C)O)c1=O (mixture of isomers) [Example 7]
B: CC(=O)c1c(C)c2cnc(N[C@H]3CCOC[C@@H]3O)nc2n(C2CCCC2)c1=O
C: CC[C@H]1CCC[C@H]1n1c(=O)c(C(C)=O)c(C)c2cnc(N[C@@H]3CCOC[C@H]3O)nc21
Req: Put the items in sequence by pKi, from largest down. Give me the labels in the order the question wants.
Resp: C, A, B

---

Biological target: CDK6/Cyclin D3 (Homo sapiens (Human))
Experiment: CDK6/Cyclin D3 CHEF assay (Chelation-Enhanced Fluorescence), Ki by Morrison equation
Type: biochemical
Conditions: geometric mean; tested in CHEF Assay; read-out: CDK6/Cyclin D3: GMean Ki
recorded endpoint: Ki

compound="CC(=O)c1c(C)c2cnc(N[C@@H]3CCOC(C)(C)[C@H]3O)nc2n(C2CCCC2)c1=O (mixture of isomers) [Example 8]" assay_target="CDK6/Cyclin D3 (Homo sapiens (Human))" test_result="> 560 nM"
compound="CC(=O)c1c(C)c2cnc(N[C@@H]3CCOC[C@H]3O)nc2n([C@H]2CCC[C@]2(C)F)c1=O (single isomer, unassigned)" assay_target="CDK6/Cyclin D3 (Homo sapiens (Human))" test_result="> 560 nM"

Okay, now this compound:
Req: # query: Ki of entry CC(=O)c1c(C)c2cnc(N[C@H]3CCOC[C@@H]3O)nc2n(C2CCCC2)c1=O
Resp: > 570 nM

---

Molecular target: CDK4/Cyclin D1 (Homo sapiens (Human))
Test: CDK4/Cyclin D1 CHEF assay (Chelation-Enhanced Fluorescence), Ki by Morrison equation
Type: biochemical
Settings: geometric mean; tested in CHEF Assay; read-out: CDK4/Cyclin D1 GMean Ki
recorded endpoint: Ki (nM)

compound=CC(=O)c1c(C)c2cnc(N[C@@H]3CCOC[C@H]3O)nc2n(C2CC2)c1=O assay_target="CDK4/Cyclin D1 (Homo sapiens (Human))" recorded_endpoint=Ki test_result=52
compound=CC(=O)c1c(C)c2cnc(N[C@@H]3CCOC[C@H]3O)nc2n(C2CCC2)c1=O assay_target="CDK4/Cyclin D1 (Homo sapiens (Human))" recorded_endpoint=Ki test_result=1.8
compound=CC(=O)c1c(C)c2cnc(N[C@@H]3CCOC[C@H]3O)nc2n([C@H]2CCOC2)c1=O assay_target="CDK4/Cyclin D1 (Homo sapiens (Human))" recorded_endpoint=Ki test_result=27
compound=CC(=O)c1c(C)c2cnc(N[C@@H]3CCOC[C@H]3O)nc2n(C2CC(C)(C)C2)c1=O assay_target="CDK4/Cyclin D1 (Homo sapiens (Human))" recorded_endpoint=Ki test_result=4.5
compound=CC(=O)c1c(C)c2cnc(N[C@@H]3CCOC[C@H]3O)nc2n([C@H]2CC[C@H](N(C)C)CC2)c1=O assay_target="CDK4/Cyclin D1 (Homo sapiens (Human))" recorded_endpoint=Ki test_result=36
compound=CC(=O)c1c(C)c2cnc(N[C@@H]3CCOC[C@H]3O)nc2n(C2CCNCC2)c1=O assay_target="CDK4/Cyclin D1 (Homo sapiens (Human))" recorded_endpoint=Ki test_result=16
compound="CC(=O)c1c(C)c2cnc(N[C@@H]3CCOC[C@H]3O)nc2n([C@@H]2CC[C@@H]3C[C@@H]32)c1=O (mixture of isomers) [Example 13]" assay_target="CDK4/Cyclin D1 (Homo sapiens (Human))" recorded_endpoint=Ki test_result=2.1
compound=CC(=O)c1c(C)c2cnc(N[C@@H]3CCOC[C@H]3O)nc2n([C@H]2CCNC2)c1=O assay_target="CDK4/Cyclin D1 (Homo sapiens (Human))" recorded_endpoint=Ki test_result=9.6
compound="CC(=O)c1c(C)c2cnc(N[C@@H]3CCOC[C@H]3O)cc2n(C2CCC(O)C2)c1=O (single isomer, unassigned) [Example 15]" assay_target="CDK4/Cyclin D1 (Homo sapiens (Human))" recorded_endpoint=Ki test_result=3.8
compound=CC(=O)c1c(C)c2cnc(N[C@@H]3CCOC[C@H]3O)nc2n([C@H]2C[C@H](O)C2)c1=O assay_target="CDK4/Cyclin D1 (Homo sapiens (Human))" recorded_endpoint=Ki test_result=13

I: CC(=O)c1c(C)c2cnc(N[C@@H]3CCOC[C@H]3O)nc2n([C@@H]2CCNC2)c1=O
II: CC(=O)c1c(C)c2cnc(N[C@@H]3CCOC[C@H]3O)cc2n([C@H]2CCOC2)c1=O
III: CC(=O)c1c(C)c2cnc(N[C@@H]3CCOC[C@H]3O)cc2n(C2CCC(O)C2)c1=O (single isomer, unassigned) [Example 14]
IV: CC(=O)c1c(C)c2cnc(N[C@H]3CCOC[C@@H]3O)cc2n(C2CCCC2)c1=O
V: CC(=O)c1c(C)c2cnc(N[C@@H]3CCOC[C@H]3O)nc2n([C@@H]2CCC[C@@H]2C)c1=O
Req: Put the items in sequence by Ki, from largest down. Give me the labels in the order the question wants.
Resp: IV, II, I, V, III

I: CC(=O)c1c(C)c2cnc(N[C@@H]3CCOC[C@H]3O)nc2n([C@H]2CC[C@H](N)CC2)c1=O
II: CC(=O)c1c(C)c2cnc(N[C@@H]3CCOC[C@H]3O)nc2n(C2CC3(CNC3)C2)c1=O
Req: Of the two listed items, which has the higher Ki? First: I Second: II Refer to your chosen item by its label in the answer.
Resp: I
(I: 13 nM, II: 1.1 nM)

---

Biological target: CDK4/Cyclin D1 (Homo sapiens (Human))
Test: CDK4/Cyclin D1 CHEF assay (Chelation-Enhanced Fluorescence), Ki by Morrison equation
Type: biochemical
Conditions: geometric mean; tested in CHEF Assay; read-out: CDK4/Cyclin D1 GMean Ki
recorded endpoint: Ki (nM)

compound="CC(=O)c1c(C)c2cnc(N[C@@H]3CCOC[C@H]3O)nc2n([C@H]2CCN(C)C2)c1=O [Example 26]" recorded_endpoint=Ki reading_unit=nM test_result=13
compound="CC(=O)c1c(C)c2cnc(N[C@@H]3CCOC[C@H]3O)nc2n([C@@H]2CCC[C@]2(C)F)c1=O (mixture of isomers) [Example 16]" recorded_endpoint=Ki reading_unit=nM test_result=2.6
compound="COCCN1CC2(CC(n3c(=O)c(C(C)=O)c(C)c4cnc(N[C@@H]5CCOC[C@H]5O)nc43)C2)C1 [Example 28]" recorded_endpoint=Ki reading_unit=nM test_result=10
compound="CC(=O)c1c(C)c2cnc(N[C@@H]3CCOC(C)(C)[C@H]3O)nc2n(C2CCCC2)c1=O (mixture of isomers) [Example 9]" recorded_endpoint=Ki reading_unit=nM test_result=2.7
compound="CC(=O)c1c(C)c2cnc(N[C@@H]3CCOC[C@H]3O)nc2n([C@@H]2CC[C@@H]3C[C@@H]32)c1=O (mixture of isomers) [Example 12]" recorded_endpoint=Ki reading_unit=nM test_result=8.5
